As shown below, each of these binders has a reported pKd value.
Target: T1, human IL-18BP (human, UniProt O95998 31-194)
T1 construct: UniProt printed as 095998; also called hIL-18BP
T1 sequence: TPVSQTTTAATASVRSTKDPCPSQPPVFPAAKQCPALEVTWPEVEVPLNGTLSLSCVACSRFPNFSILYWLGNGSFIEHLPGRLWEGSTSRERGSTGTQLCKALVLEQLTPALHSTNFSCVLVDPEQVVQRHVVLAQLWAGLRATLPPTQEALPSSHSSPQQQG
Assay: BLI, apparent KD
Please express pKd as -log10 of the molar concentration.

Recorded pKd, per entry:
binder	pKd
SA302a HC-Y33aM (antibody, V domains shown) VH: QVQLQESGPGLVKPSQTLSLTCTVSGYSITSDMNAHWIRQPPGKGLEWIGYIHYSGSTNYNPSLKSRVTISRDTSKNQFSLKLSSVTAADTAVYYCARNYGSIYVNYFDYWGQGTLVTVSS VL: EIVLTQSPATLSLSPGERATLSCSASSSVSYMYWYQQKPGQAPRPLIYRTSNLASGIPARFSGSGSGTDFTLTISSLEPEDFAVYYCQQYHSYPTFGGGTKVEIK	8.52
SA302a HC-H35P (antibody, V domains shown, IgG1 kappa) VH: QVQLQESGPGLVKPSQTLSLTCTVSGYSITSDYNAPWIRQPPGKGLEWIGYIHYSGSTNYNPSLKSRVTISRDTSKNQFSLKLSSVTAADTAVYYCARNYGSIYVNYFDYWGQGTLVTVSS VL: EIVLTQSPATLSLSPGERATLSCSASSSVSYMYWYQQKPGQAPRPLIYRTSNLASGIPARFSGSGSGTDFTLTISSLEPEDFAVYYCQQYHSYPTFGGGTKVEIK	9.06
SA302a HC-S31Y (antibody, V domains shown) VH: QVQLQESGPGLVKPSQTLSLTCTVSGYSITYDYNAHWIRQPPGKGLEWIGYIHYSGSTNYNPSLKSRVTISRDTSKNQFSLKLSSVTAADTAVYYCARNYGSIYVNYFDYWGQGTLVTVSS VL: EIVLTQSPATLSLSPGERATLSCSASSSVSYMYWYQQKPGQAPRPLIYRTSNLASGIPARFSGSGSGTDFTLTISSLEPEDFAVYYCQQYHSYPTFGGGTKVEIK	8.95
SA302a HC-S31T (antibody, V domains shown) VH: QVQLQESGPGLVKPSQTLSLTCTVSGYSITTDYNAHWIRQPPGKGLEWIGYIHYSGSTNYNPSLKSRVTISRDTSKNQFSLKLSSVTAADTAVYYCARNYGSIYVNYFDYWGQGTLVTVSS VL: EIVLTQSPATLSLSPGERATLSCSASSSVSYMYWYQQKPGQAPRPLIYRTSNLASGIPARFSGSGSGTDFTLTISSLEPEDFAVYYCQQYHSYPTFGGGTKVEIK	8.99

Could you now consider this next binder?
Suppose we examine the binder SA302a HC-D33E (antibody, V domains shown, IgG1 kappa) VH: QVQLQESGPGLVKPSQTLSLTCTVSGYSITSEYNAHWIRQPPGKGLEWIGYIHYSGSTNYNPSLKSRVTISRDTSKNQFSLKLSSVTAADTAVYYCARNYGSIYVNYFDYWGQGTLVTVSS VL: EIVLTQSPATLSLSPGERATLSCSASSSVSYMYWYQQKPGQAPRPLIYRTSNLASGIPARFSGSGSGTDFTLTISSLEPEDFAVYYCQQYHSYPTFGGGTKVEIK ; what pKd value has been reported?
8.75

Ref: patent US20250368745A1
